These entries and their values trace back to ChEMBL document CHEMBL1201862.

Here, each record is paired with measured GI50 data.
- Tested on: COLO 205
- PROTOCOL_SUMMARY: NCI tumour cell line growth inhibition, 48 h
Calls of active or inactive are those of the source. No stated cut-off is given here; in the data, active = GI50 up to about 1.1 µM and inactive = higher.
QUANTITY_KIND: GI50

In [3]: df
Out[3]:
                           structure_smiles  experimental_target                result
0  Cc1cc(Cl)ccc1Nc1sc(C(=O)c2cc3cc(Cl)ccc3o2)c(N)c1C#N             COLO 205  > 69.8 µM (inactive)
1  CCOC(=O)C(C(=O)OCC)c1ccc([N+](=O)[O-])o1             COLO 205    3.27 µM (inactive)
2         CC(=O)OCCn1cnc2c(NCC=C(C)C)ncnc21             COLO 205   > 100 µM (inactive)

---

- Tested on: NCI-H460
- PROTOCOL_SUMMARY: NCI tumour cell line growth inhibition, 48 h
Calls of active or inactive are those of the source. No stated cut-off is given here; in the data, active = GI50 up to about 1.1 µM and inactive = higher.
QUANTITY_KIND: GI50

>>> df
                                   compound               result
0    CCN1c2nc3ccccc3nc2N(CC)c2nc3ccccc3nc21   32.9 µM (inactive)
1  Cc1ccc(-c2nc(N/N=C/c3ccc(O)cc3)c3ccccc3n2)cc1   9.91 µM (inactive)
2       CCOC(=O)NN(C(=O)OCC)c1c(C)cc(C)cc1C  > 100 µM (inactive)
3  COc1ccc(NC(C)=O)cc1N1C(=O)/C(=C\c2cc(OC)c(OC)c(OC)c2)S(=O)(=O)C1c1ccccc1 (centres undefined)   58.9 µM (inactive)

---

- System: OVCAR-4
- PROTOCOL_SUMMARY: NCI tumour cell line growth inhibition, 48 h
Calls of active or inactive are those of the source. Rule as the data show it: active = GI50 up to about 1.1 µM and inactive = higher.
QUANTITY_KIND: GI50

                                   compound  experimental_target  quantity_kind               result
0  CC1(c2ccc(F)cc2)C(C#N)C(=O)NC(=O)C1C#N (stereo not drawn)              OVCAR-4           GI50  > 100 µM (inactive)
1  Cc1nc2ccccc2c(=O)n1NC(=S)Nc1ccc(Cl)cc1[N+](=O)[O-]              OVCAR-4           GI50  > 100 µM (inactive)
2   CC(/C=C/c1ccccc1)=N\N=C(C)\C=C\c1ccccc1              OVCAR-4           GI50  > 100 µM (inactive)
3    C(=C\C(SCc1ccccc1)SCc1ccccc1)/c1ccccc1              OVCAR-4           GI50   > 10 µM (inactive)
4  O=C1/C(=C/c2ccc(Cl)cc2)Sc2scc(-c3cccc([N+](=O)[O-])c3)[n+]21              OVCAR-4           GI50   6.97 µM (inactive)
5  C=CCN1CCC(OC(=O)C(O)(C#CC)C2CCCC2)CC1 (stereo not drawn)              OVCAR-4           GI50  > 100 µM (inactive)
6   CC(C)n1c(=O)n(-c2ccccc2)n(C(C)(C)C)c1=O              OVCAR-4           GI50  > 100 µM (inactive)
7   Cc1c2ccccc2c(C)c2c3c(ccc12)C(=O)C=CC3=O              OVCAR-4           GI50   23.4 µM (inactive)

---

- Test system: 786-0
- PROTOCOL_SUMMARY: NCI tumour cell line growth inhibition, 48 h
The source made the active and inactive calls. No stated cut-off is given here; in the data, active = GI50 up to about 1.1 µM and inactive = higher.
Outcomes: 1.0 (active), 0.0 (inactive)

>>> df
                                   compound  class
0  [C-]#[N+]C(C)(C)C[C@H]1CC(C)C2CCC(C)C3([N+]#[C-])CCC(=C)C1[C@H]23 (stereo not given in full)    0.0
1  c1ccc(C2=C(c3ccccc3)Sc3nnc(CCCCCCCCc4nnc5n4NC(c4ccccc4)=C(c4ccccc4)S5)n3N2)cc1    0.0
2  COc1ccc2c(c1)c(=Cc1ccc(N(C)C)cc1)c1cc(-c3ccccc3)[n+](C)n12    1.0
3               Cc1ccc(N2CCC3(CC2)OCCO3)cc1    0.0
4  O=[N+]([O-])C(/C=N/Nc1ccccc1)/C=N/Nc1ccccc1    0.0
5  COP(=O)(CC(=O)C1OC(C)(C)OC1C(O)COCc1ccccc1)OC (stereo not given)    0.0
6  COC(=O)C1=C(C)NC(=S)NC1c1ccc(N(CCCl)CCCl)cc1Cl (stereo not given)    0.0
7  CC1=C(C)CC2C(=O)N(c3cc(C(C)(C)C)ccc3C(C)(C)C)C(=O)C2C1 (stereo not given)    0.0
8  COc1ccc2nc3cc([N+](=O)[O-])ccc3c(Nc3ccc(S(=O)(=O)Nc4ncccn4)cc3)c2c1    0.0
9  COc1ccc(C(=O)/C(=N/Nc2ccccc2)c2ccc(OC)cc2)cc1    0.0

---

- Test system: NCI/ADR-RES
- PROTOCOL_SUMMARY: NCI tumour cell line growth inhibition, 48 h
Calls of active or inactive are those of the source. Rule as the data show it: active = GI50 up to about 1.1 µM and inactive = higher.
Outcomes: true for active, false for inactive

                                    molecule  class
 0  COc1cc2cc(C(=O)N3C[C@@H](CCl)c4c3cc(N)c3ccccc43)[nH]c2c(OC)c1OC   true
 1               N#CC1=C(N2CCCC2)NC(=O)CC1=O  false
 2  CC12CN(CC[N+](C)(C)C)CC1(C)C1CCC2O1 (stereo not given)  false
 3  O=C1Oc2ccccc2C1C/C(=N\Nc1ccccc1)c1ccccc1O (stereo not given)  false
 4  COc1cc(OC)c(OC)cc1/C=C/c1cc[n+](C)c2ccccc12  false
 5  N#Cc1nc(C#N)n(S(=O)(=O)c2ccccc2)c1NS(=O)(=O)c1ccccc1  false
 6  CCCNC(=O)N1CC(CN2CCN(c3ccccc3)CC2)O/C1=N/C(=O)Nc1ccccc1 (stereo not given)  false
 7  CC1=C(C)CC2C(=O)N(c3cc(C(C)(C)C)ccc3C(C)(C)C)C(=O)C2C1 (stereo not given)  false
 8  C#CCOC(=O)C(N)CCCNC(=N)N (stereo not given)  false
 9    Oc1cc(O)c2ccc(-c3ccc(O)c(O)c3)[o+]c2c1  false
10  COC1=CC(=O)c2c(cc(COP(=O)(N(C)CCBr)N(C)CCBr)n2C)C1=O  false
11              CC(=O)Nc1cc2c3c(c1)CCCN3CCC2  false
12  CC(=O)OCC1OC(SC2OC(COC(C)=O)C(OC(C)=O)C(OC(C)=O)C2OC(C)=O)C(OC(C)=O)C(OC(C)=O)C1OC(C)=O (stereo not given)  false
13      Cc1n[nH]c(=O)n1N=C(c1ccccc1)c1ccccc1  false
14  C=CCn1c(=O)ccn(/C(=C/C(=O)OCC)C(=O)OCC)c1=O  false
15              CC1(C)CCSC(/C=C/c2ccccc2)=N1  false
16  O=S(=O)(O)c1ccc2c(/N=N/c3ccccc3Cl)c(O)ccc2c1  false
17  CC(=O)OCC1OC(NC(=S)Nn2c(=O)[nH]c3ccccc3c2=O)C(OC(C)=O)C(OC(C)=O)C1OC(C)=O (stereo not given)  false
18  CC1(CO)OC(n2cnc3cncnc32)CC1O (stereo not given)  false
19             COc1ccc(-n2nnc(C(N)=O)c2O)cc1  false

---

Here, each record is paired with measured GI50 data.
- System: HL-60
- PROTOCOL_SUMMARY: NCI tumour cell line growth inhibition, 48 h
Active and inactive are the calls of the source. No stated cut-off is given here; in the data, active = GI50 up to about 1.1 µM and inactive = higher.
QUANTITY_KIND: GI50

>>> print(df.to_string())
                                   molecule               result
0  COc1cc(OC2OC(CO)C(O)C(O)C2O)c2c(c1)O[C@@H]1[C@H](O)Oc3cc(OC)c(OC)cc3[C@]1(O)C2=O (stereo partly drawn)   > 25 µM (inactive)
1  S=P1(Oc2ccccc2)NNP2(=NP(N3CC3)(N3CC3)=NP(N3CC3)(N3CC3)=N2)NN1 (stereo not drawn)   30.4 µM (inactive)
2  O=C1N[C@H]2c3c(Cl)sc(Cl)c3/C(=N/O)[C@H]2O1   18.7 µM (inactive)
3  O=c1[nH]c(=O)n(COCc2ccccc2)c2ccc([N+](=O)[O-])cc12  > 100 µM (inactive)
4   O=C1Nc2ccccc2C(=O)/C1=C/NC(=S)NC1CCCCC1  > 100 µM (inactive)
5  CC(=O)CC12NC(=O)N(C)N=C1N(C)C(=O)N(C)C2=O (stereo not drawn)   25.9 µM (inactive)
6             Cc1ccc2c(c1-c1ccccc1)C(=O)OC2  > 100 µM (inactive)
7   CC(C)n1c(=O)n(-c2ccccc2)n(C(C)(C)C)c1=O   47.4 µM (inactive)
